- measured on: Protein RecA (Mycobacterium tuberculosis, UniProt P9WHJ3)
- experiment summary: Fluorescence Cell-Free Homogeneous Dose Retest to Identify Inhibitors of RecA-Intein Splicing Activity. [Related pubchem assays (depositor defined):AID2097, AID2223, AID489010, AID492950]
- Assay type: functional
Calls of active or inactive are those of the source. No stated cut-off is given here; in the data, actives have a measured EC50 and inactives only a lower limit.
Outcome codes: active, inactive

{"compound": "Cc1ccc2nc(-c3cccs3)oc(=O)c2c1", "label value": "active"}
{"compound": "CC1=NNC(=O)/C1=C\\c1cn(-c2ccccc2)nc1-c1ccccc1", "label value": "active"}
{"compound": "Cc1cccc(OCCN2CSC(=S)N(C)C2)c1", "label value": "active"}
{"compound": "COc1cc2c(cc1OC)C(c1cc(Br)ccc1F)N(C(=O)CCl)CC2 (stereo not drawn)", "label value": "active"}
{"compound": "Cc1ccc(N(CCC#N)C(=O)CCl)cc1C", "label value": "active"}
{"compound": "Cc1nn(Cc2ccccc2)c2c1C(c1cccnc1)C(C#N)=C(N)O2 (stereo not drawn)", "label value": "active"}
{"compound": "COc1ccc(S(=O)(=O)c2cnc3ccccc3n2)cc1", "label value": "active"}
{"compound": "CC1=NN(c2ccc(N)cc2)C(=O)C1", "label value": "active"}
{"compound": "COC1=C(Nc2ccc(O)cc2)C(=O)c2ccccc2C1=O", "label value": "active"}
{"compound": "O=C(CSc1c2c(nc3cc(Cl)ccc13)CCCC2)NCc1ccco1", "label value": "active"}
{"compound": "COc1ccc(N(Cc2cc(O)nc3ccccc23)C(=O)CCl)cc1", "label value": "active"}
{"compound": "Cc1nc2c(-c3ccc(F)cc3)c(C)nn2c(O)c1Cl", "label value": "active"}
{"compound": "Oc1nc(Nc2ccccn2)cc2ccccc12", "label value": "inactive"}
{"compound": "O=C(CCl)Nc1cc(-c2ccccc2)nn1-c1ccccc1", "label value": "active"}
{"compound": "O=C(CCl)c1cc2c3c(c1)CC(=O)N3CCC2", "label value": "active"}
{"compound": "COC(=O)C(C)Sc1ncnc2c1nnn2-c1ccc(F)cc1 (stereo not drawn)", "label value": "active"}
{"compound": "CC(C)S(=O)(=O)C1=NSC2=NC(=O)/C(=C\\c3ccc(OC(=O)c4ccco4)cc3)C(=N)N21", "label value": "active"}
{"compound": "CCOc1cc(/C=C2/C(=N)N3C(=NC2=O)SN=C3S(=O)(=O)C(C)C)ccc1OC(=O)c1ccco1", "label value": "active"}
{"compound": "O=c1cc(-c2c(F)c(F)c(F)c(F)c2F)oc2c(F)c(F)c(F)c(F)c12", "label value": "active"}
{"compound": "NC(=O)CC[C@@H]1NC(=O)[C@H](CO)NC(=O)c2cc([N+](=O)[O-])cc(I)c2NCC[C@@H](C(N)=O)NC1=O", "label value": "active"}
{"compound": "CCn1c(COc2cccc3ccccc23)nnc1SCC(N)=O", "label value": "inactive"}
{"compound": "Oc1nc(Nc2ccc(F)cc2)cc2ccccc12", "label value": "active"}

---

- Tested on: BJ
- experiment summary: cells
- Type: functional, cell-based
- experimental setup: Homo sapiens
Activity calls are given as the source filed them. Rule as the data show it: actives have a measured EC50 and inactives only a lower limit.

{"molecule": "O=C(CCl)Nc1cc(-c2ccccc2)nn1-c1ccccc1", "EC50": "9.6 µM (active)"}
{"molecule": "CC(=O)c1cccc(NC(=O)/C=C/c2ccc([N+](=O)[O-])s2)c1", "EC50": "> 150 µM (inconclusive)"}
{"molecule": "CCN1/C(=C/c2ccc3ccccc3[n+]2CC)C=Cc2ccccc21", "EC50": "2.73 µM (active)"}
{"molecule": "COc1cc2c(cc1OC)C(c1cc(Br)ccc1F)N(C(=O)CCl)CC2 (stereo unspecified)", "EC50": "6.1 µM (active)"}
{"molecule": "COc1ccc(-n2c(SCC(=O)Nc3ncc(Cl)cc3Cl)nc3ccccc32)cc1", "EC50": "139 µM (active)"}
{"molecule": "N#C/C(N=Nc1ccccc1O)=N\\Nc1ccccc1O", "EC50": "7.91 µM (active)"}

Ref: ChEMBL document CHEMBL1201862
